- test target: Amyloid-beta precursor protein (Homo sapiens) (UniProt P05067)
- Sequence (P05067 whole entry): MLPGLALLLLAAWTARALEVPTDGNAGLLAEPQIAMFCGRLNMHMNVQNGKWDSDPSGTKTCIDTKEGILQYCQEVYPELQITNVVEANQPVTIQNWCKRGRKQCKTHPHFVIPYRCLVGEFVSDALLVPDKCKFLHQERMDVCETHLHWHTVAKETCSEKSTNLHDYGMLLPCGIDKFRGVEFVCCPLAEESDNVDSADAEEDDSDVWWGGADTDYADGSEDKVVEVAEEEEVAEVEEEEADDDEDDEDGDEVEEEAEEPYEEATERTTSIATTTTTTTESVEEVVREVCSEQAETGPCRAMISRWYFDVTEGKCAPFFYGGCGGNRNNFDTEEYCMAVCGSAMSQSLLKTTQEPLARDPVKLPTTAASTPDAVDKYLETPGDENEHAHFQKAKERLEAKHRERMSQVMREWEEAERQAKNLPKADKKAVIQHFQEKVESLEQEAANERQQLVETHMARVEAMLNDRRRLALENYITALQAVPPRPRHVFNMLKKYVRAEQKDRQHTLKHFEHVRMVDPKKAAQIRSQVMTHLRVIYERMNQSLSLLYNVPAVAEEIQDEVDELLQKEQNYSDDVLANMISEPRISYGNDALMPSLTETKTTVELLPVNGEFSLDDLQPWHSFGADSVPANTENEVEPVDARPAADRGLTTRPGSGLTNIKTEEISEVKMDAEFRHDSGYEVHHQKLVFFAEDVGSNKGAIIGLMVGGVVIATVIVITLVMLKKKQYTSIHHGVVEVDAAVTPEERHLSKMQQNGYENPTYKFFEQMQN
- test details: Inhibition of amyloid beta (1 to 40) (unknown origin) self aggregation at 10 uM incubated for 2 hrs by ThT fluorescence assay
Use 40% as the dividing line for inhibition, with the line itself on the condition met side and lower values as condition not met.

CCN(CC)Cc1ccc(/C=C2\Cc3cc(OC)ccc3C2=O)cc1	condition not met
CCN(CC)Cc1ccc(C=C2Cc3cc(OC)c(OC)cc3C2=O)cc1	condition met
CCN(CC)Cc1ccc(C=C2Cc3ccccc3C2=O)cc1	condition not met
O=c1c(O)c(-c2ccc(O)c(O)c2)oc2cc(O)cc(O)c12	condition met
CCN(CC)Cc1ccc(C=C2Cc3ccc(OC)cc3C2=O)cc1	condition not met
CCN(CC)Cc1ccc(/C=C2/Cc3cc(OC)ccc3C2=O)cc1	condition not met

# credit: ChEMBL document CHEMBL5104157
